# Tested on: SNB-75
# Test summary: NCI tumour cell line growth inhibition, 48 h
The source made the active and inactive calls. Cut-off read from the data, not from the text of the source: active = GI50 up to about 1.1 µM and inactive = higher.
API: response.call in active, inactive

Some entries whose results are on file:
// return assay outcome for COC(=O)C1(C(=O)OC)CC2=C(S(=O)(=O)c3ccccc3)C[C@H](C#N)[C@H]2C1
inactive

// return assay outcome for CCOC(=O)C(Cc1ccc(OC(=O)OC(C)(C)C)cc1)NC(=O)OC(C)(C)C (stereo not drawn)
inactive

// return assay outcome for N#CC(C(=O)/C(=N/NC(=O)c1ccccc1O)C(C#N)c1ccc(Br)cc1)c1ccc(Br)cc1 (stereo not drawn)
inactive

// return assay outcome for COC[C@H]1OC(=O)c2coc3c2[C@@]1(C)C1=C(C3=O)[C@@H]2CCC(=O)[C@@]2(C)C[C@H]1OC(C)=O
active

// return assay outcome for COC(=O)C(CCSC)NC(=O)Cc1ccc(C(=O)c2ccccc2)cc1 (stereo not drawn)
inactive

---
// return assay outcome for CCOc1cc(NC(C)=O)ccc1C(=O)NN1C(=O)C(Oc2ccccc2)C1c1ccc(O)c(OC)c1 (stereo not drawn)
inactive

// return assay outcome for CC1=CC2=C(C=O)C(=O)[C@](C)(O)[C@@H](O)C2=CO1
inactive

// return assay outcome for COCN(CCC1=CCCCC1)C(=O)OC
inactive

###

# Tested on: OVCAR-4
# Test summary: NCI tumour cell line growth inhibition, 48 h
Activity calls are given as the source filed them. Rule as the data show it: active = GI50 up to about 1.1 µM and inactive = higher.
Parameter: GI50

Worked examples, 3 compounds total:
Query (compound): C/C(=N\N)C(CN1CCCCC1)C(c1ccccc1)c1c(O)c2ccccc2oc1=O (stereo not given) ; field requested: GI50
> 100 µM (inactive)

Query (compound): Cn1cnc([N+](=O)[O-])c1Sc1nc(N)nc2c1ncn2Cc1ccccc1 ; field requested: GI50
20.8 µM (inactive)

Query (compound): COC(=O)c1c(O)ccc2c1c1cc3ccccc3c(O)c1n2Cc1ccccc1Cl ; field requested: GI50
11.6 µM (inactive)

Proceeding to the next compound to report its GI50.
Query (compound): O=C1c2ccccc2C(=O)c2[nH]c(Cc3ccc(F)cc3)nc21 ; field requested: GI50
14.8 µM (inactive)

###

Reported GI50 values follow for various compounds
# Tested on: SN12C
# Test summary: NCI tumour cell line growth inhibition, 48 h
Active and inactive are the calls of the source. Cut-off read from the data, not from the text of the source: active = GI50 up to about 1.1 µM and inactive = higher. Where a SMILES comes first, the peptide text is derived from it.

Query (compound): COC(=O)C1=CC2C(=O)OC1CC2C#N (stereo not drawn) ; field requested: GI50
> 100 µM (inactive)

---
Query (compound): COc1cccc2nc3c(C(=O)NCCN(C)C)cccc3nc12 ; field requested: GI50
9.2 µM (inactive)

Query (compound): COC(=O)/C(=C\c1ccco1)P(=O)(OC)OC ; field requested: GI50
39.9 µM (inactive)

Query (compound): CC(C)CC(NC(=O)C(Cc1ccccc1)NC(=O)C(Cc1c[nH]c2ccccc12)NC(=O)CNC(=O)C(N)Cc1ccc(O)cc1)C(=O)O (stereo not drawn) (H-YGWFL-OH; configuration not given here) ; field requested: GI50
48.6 µM (inactive)

Query (compound): Cc1n[n+]([O-])c(C)cc1[N+](=O)[O-] ; field requested: GI50
14.9 µM (inactive)

Query (compound): Cc1ccc(NC(=O)C(=O)C2C(=O)NC(=O)NC2=O)c(C)c1 ; field requested: GI50
14.9 µM (inactive)
